Tested on: SNB-19
assay.procedure: NCI tumour cell line growth inhibition, 48 h
Calls of active or inactive are those of the source. Rule as the data show it: active = GI50 up to about 1.1 µM and inactive = higher.
Respond only with the outcome that fits, drawn from active, inactive

Example entries and their recorded answers appear below.
>>> print(df.to_string())
                                   compound  class_assignment
0  CCN(CC)CCn1nc2c3c(c(NCCN)ccc31)Sc1cc(O)ccc1-2            active
1   C/C(=N\NC(=S)Nc1ccccc1)c1nc2cccnc2[nH]1          inactive
2       COc1ccc(P2(=S)OC(C)(C)C(C)(C)O2)cc1          inactive
3  O=C1NC(c2cccc3ccccc23)Nc2ccccc21 (stereo unspecified)            active
4   N=C(N)NCC(N)C(=O)O (stereo unspecified)          inactive
5  CC1(C)O/C(=C\c2ccccc2)C(=O)/C(=C/c2ccccc2)O1          inactive
6  COC(=O)C1CC(C(=O)OC)c2nc3cc(C)ccc3nc21 (stereo unspecified)          inactive
7  CC(C)N(C(=O)C1(O)c2ccccc2C=Cc2ccccc21)C(C)C          inactive

Query block: Tell me the assay call for "COC(=O)c1cc2c3c(ccc2[nH]1)N(C(=O)c1cc2c4c(ccc2[nH]1)N(C(=O)c1cc2c5c(ccc2[nH]1)N(C(N)=O)CC5)CC4)CC3" please.
Result block: inactive

Query block: Same read-out for CC1C(c2cc(C(C)(C)C)c(O)c(C(C)(C)C)c2)c2cc3c(cc2OC1N1CCOCC1)OCO3 (stereo unspecified) ?
Result block: inactive

Query block: Same read-out for COC(=O)/C=C\COCC1C2CCC(=O)C21 (stereo unspecified) ?
Result block: inactive

Source: ChEMBL document CHEMBL1201862
